system: BK potassium channel, cloned hSlo (α-hSlo and β-bSlo) in CHO cells (Homo sapiens)
Construct: expressed in transfected cells; host or cells: CHO cells, permanently transfected
protocolSummary: Em-Assay: membrane potential with voltage sensitive dye DiBAC(4)3, fluorescence plate reader
Type: cell-based
conditionDescription: compound 50 μM; NS004 25 or 50 μM; hSlo transfected CHO cells; change in DiBAC(4)3 fluorescence intensity
valueType: Em effect: ratio of the compound effect compared to the maximal effect of NS004

The examples below pair each entry with its known result.
# compound, readoutValue
rows = [
    ("COc1cccc(CNc2cccc(NCc3csc4ccc(Cl)cc34)c2)c1", "+ (0-1 = +)"),
    ("FC(F)(F)c1ccccc1CNc1ccc(NCc2ccccc2C(F)(F)F)c(Cl)c1", "+ (0-1 = +)"),
    ("Fc1cccc(CNc2ccc(NCc3cccc(F)c3)cc2)c1", "+ (0-1 = +)"),
    ("CC(C)(C)c1ccc(CNc2cc(NCc3ccc(C(F)(F)F)cc3)cc(C(F)(F)F)c2)cc1", "+ (0-1 = +)"),
    ("Cc1cc(NCc2ccc(Br)cc2)ccc1NCc1ccc(Br)cc1", "+ (0-1 = +)"),
]

Entry CS(=O)(=O)c1ccc(CNc2cccc(NCc3ccc(F)cc3Cl)c2)cc1 ; Em effect: ratio of the compound effect compared to the maximal effect of NS004 = + (0-1 = +)

Entry FC(F)(F)c1cc(NCc2ccc(Br)cc2)cc(NCc2ccc3ccccc3c2)c1 ; Em effect: ratio of the compound effect compared to the maximal effect of NS004 = +++ (>1.5 = +++)

Entry FC(F)(F)c1cc(NCc2cccc(Cl)c2)cc(NCc2cccc(Cl)c2)c1 ; Em effect: ratio of the compound effect compared to the maximal effect of NS004 = + (0-1 = +)

Entry Cc1cc(NCc2cccc(Cl)c2)ccc1NCc1cccc(Cl)c1 ; Em effect: ratio of the compound effect compared to the maximal effect of NS004 = + (0-1 = +)

Entry Fc1cccc(Cl)c1CNc1ccc(NCc2c(F)cccc2Cl)c(Cl)c1 ; Em effect: ratio of the compound effect compared to the maximal effect of NS004 = + (0-1 = +)

* * *

system: BK potassium channel, cloned hSlo (α-hSlo and β-bSlo) in CHO cells (Homo sapiens, UniProt Q12791)
Construct: expressed in transfected cells; host or cells: CHO cells, permanently transfected
Sequence (Q12791 1-1178 isoform Q12791-5): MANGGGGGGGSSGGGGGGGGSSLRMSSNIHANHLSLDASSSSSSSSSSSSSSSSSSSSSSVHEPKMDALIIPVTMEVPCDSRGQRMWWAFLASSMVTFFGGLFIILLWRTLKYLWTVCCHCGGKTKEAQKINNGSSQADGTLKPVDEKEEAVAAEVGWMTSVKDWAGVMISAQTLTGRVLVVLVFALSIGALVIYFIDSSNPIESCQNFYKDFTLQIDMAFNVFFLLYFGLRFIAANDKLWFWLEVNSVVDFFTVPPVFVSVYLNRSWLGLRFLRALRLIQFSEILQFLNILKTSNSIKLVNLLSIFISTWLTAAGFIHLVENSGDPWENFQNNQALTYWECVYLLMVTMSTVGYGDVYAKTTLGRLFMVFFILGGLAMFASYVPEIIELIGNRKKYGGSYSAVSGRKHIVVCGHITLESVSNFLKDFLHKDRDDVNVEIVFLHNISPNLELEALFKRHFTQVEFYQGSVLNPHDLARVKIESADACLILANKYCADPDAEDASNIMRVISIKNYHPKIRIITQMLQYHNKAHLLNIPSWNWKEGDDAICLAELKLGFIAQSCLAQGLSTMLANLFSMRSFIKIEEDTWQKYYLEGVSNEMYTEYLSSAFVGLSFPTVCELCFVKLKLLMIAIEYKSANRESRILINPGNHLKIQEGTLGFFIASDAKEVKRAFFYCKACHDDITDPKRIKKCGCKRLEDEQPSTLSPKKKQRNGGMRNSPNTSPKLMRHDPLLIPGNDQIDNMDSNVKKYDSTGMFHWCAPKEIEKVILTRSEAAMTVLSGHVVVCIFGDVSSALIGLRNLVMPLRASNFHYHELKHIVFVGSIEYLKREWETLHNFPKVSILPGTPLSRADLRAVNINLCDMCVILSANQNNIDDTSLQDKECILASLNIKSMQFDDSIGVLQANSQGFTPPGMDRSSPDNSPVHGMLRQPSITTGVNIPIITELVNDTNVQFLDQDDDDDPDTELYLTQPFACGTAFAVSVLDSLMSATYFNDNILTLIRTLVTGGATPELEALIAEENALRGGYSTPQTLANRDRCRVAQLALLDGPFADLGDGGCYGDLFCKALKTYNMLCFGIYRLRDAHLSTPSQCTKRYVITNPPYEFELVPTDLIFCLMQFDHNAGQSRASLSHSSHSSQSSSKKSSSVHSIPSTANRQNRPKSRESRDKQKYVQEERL
Sequence (Q28067 2-191 partner limits assumed): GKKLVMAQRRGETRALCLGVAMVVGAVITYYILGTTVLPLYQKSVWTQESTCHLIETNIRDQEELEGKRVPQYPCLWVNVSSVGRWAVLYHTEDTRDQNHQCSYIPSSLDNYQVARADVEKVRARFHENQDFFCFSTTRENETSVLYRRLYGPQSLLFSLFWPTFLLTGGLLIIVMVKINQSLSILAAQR
protocolSummary: Em-Assay: membrane potential with voltage sensitive dye DiBAC(4)3, fluorescence plate reader
Format: cell-based
conditionDescription: compound 50 μM; NS004 25 or 50 μM; hSlo transfected CHO cells; change in DiBAC(4)3 fluorescence intensity
valueType: Em effect: ratio of the compound effect compared to the maximal effect of NS004

The examples below pair each entry with its known result.
# compound, readoutValue
measured = [
    ("Clc1ccccc1CNc1ccc(NCc2ccccc2Cl)c(Cl)c1", "+ (0-1 = +)"),
    ("Cc1cc(NCc2ccc3ccccc3c2)ccc1NCc1ccc2ccccc2c1", "+ (0-1 = +)"),
    ("Fc1ccc(CNc2cccc(NCc3ccc(-c4csnn4)cc3)c2)c(F)c1", "+ (0-1 = +)"),
    ("Clc1ccccc1CNc1cccc(NCc2ccccc2Cl)c1", "+ (0-1 = +)"),
    ("Fc1ccc(CNc2cc(NCc3ccc(F)cc3F)cc(C(F)(F)F)c2)c(F)c1", "+ (0-1 = +)"),
    ("Fc1cccc(CNc2cccc(NCc3cccc(F)c3)c2)c1", "++ (>1-1.5 = ++)"),
    ("FC(F)(F)c1cc(NCc2ccc3ccccc3c2)cc(NCc2ccc3ccccc3c2)c1", "+ (0-1 = +)"),
    ("COc1cccc(CNc2cc(NCc3csc4ccc(Cl)cc34)cc(C(F)(F)F)c2)c1", "+ (0-1 = +)"),
]

Entry CC(C)(C)c1ccc(CNc2cccc(NCc3cccc(Cl)c3)c2)cc1 ; Em effect: ratio of the compound effect compared to the maximal effect of NS004 = + (0-1 = +)

Entry CC(C)(C)c1ccc(CNc2cccc(NCc3ccc(C(C)(C)C)cc3)c2)cc1 ; Em effect: ratio of the compound effect compared to the maximal effect of NS004 = ++ (>1-1.5 = ++)

Entry FC(F)(F)c1ccccc1CNc1ccc(NCc2ccccc2C(F)(F)F)cc1 ; Em effect: ratio of the compound effect compared to the maximal effect of NS004 = + (0-1 = +)

Entry Cc1cc(NCc2ccc(F)cc2F)ccc1NCc1ccc(F)cc1F ; Em effect: ratio of the compound effect compared to the maximal effect of NS004 = + (0-1 = +)

Entry O=[N+]([O-])c1ccc(CNc2ccc(NCc3cccc(Cl)c3)cc2Cl)cc1 ; Em effect: ratio of the compound effect compared to the maximal effect of NS004 = + (0-1 = +)
